Data origin: ChEMBL document CHEMBL1143616

# SYSTEM TESTED: Aurora kinase C (Homo sapiens)
# ASSAY METHOD TEXT: Inhibitory activity against Aurora kinase C
QUANTITY KIND: IC50 (nM)
The answer is to be given in nM; state only the numeric part.

Name the reported IC50 value associated with the compound CCc1cccc(CC)c1NC(=O)N1Cc2n[nH]c(NC(=O)c3ccc(N4CCN(C)CC4)cc3)c2C1 120

* * *

# SYSTEM TESTED: Aurora kinase C (Homo sapiens, UniProt Q9UQB9)
# Sequence (Q9UQB9 whole entry): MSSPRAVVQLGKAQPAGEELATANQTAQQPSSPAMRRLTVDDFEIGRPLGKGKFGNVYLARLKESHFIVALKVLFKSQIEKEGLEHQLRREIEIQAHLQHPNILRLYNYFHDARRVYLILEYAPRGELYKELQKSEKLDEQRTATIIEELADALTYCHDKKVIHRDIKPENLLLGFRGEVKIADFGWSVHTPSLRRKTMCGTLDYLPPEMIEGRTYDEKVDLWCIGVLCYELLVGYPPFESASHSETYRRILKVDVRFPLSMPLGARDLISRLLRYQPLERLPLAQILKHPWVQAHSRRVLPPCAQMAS
# ASSAY METHOD TEXT: Inhibition of Aurora kinase C
QUANTITY KIND: pIC50
Quick note: pIC50 values are minus log10 of concentrations in mol/L.

Hello, I am looking for reported pIC50 with Aurora kinase C (Homo sapiens, UniProt Q9UQB9) for CCc1cccc(CC)c1NC(=O)N1Cc2n[nH]c(NC(=O)c3ccc(N4CCN(C)CC4)cc3)c2C1 [PHA-680632] . Could you help? 6.92

* * *

For Aurora kinase A (Homo sapiens), measured pIC50 is reported for the entries below.
Quick note: pIC50 values are minus log10 of concentrations in mol/L.

Here is how some molecules turned out for pIC50.
GIVEN SMILES: CN1CCN(c2ccc(C(=O)Nc3[nH]nc4c3CN(C(=O)Cc3ccsc3)C4)cc2)CC1
QUANTITY KIND: pIC50
NUMBER: 7.19
//
GIVEN SMILES: CC(C)(C)c1ccc(C(=O)Nc2[nH]nc3c2CN(C(=O)Cc2ccsc2)C3)cc1
QUANTITY KIND: pIC50
NUMBER: 8.30
//
GIVEN SMILES: CN1CCN(c2ccc(C(=O)Nc3n[nH]c4c3CN(C(=O)c3ccco3)C4)cc2)CC1
QUANTITY KIND: pIC50
NUMBER: 6.80

Hello, I am looking for reported pIC50 with Aurora kinase A (Homo sapiens) for CCc1cccc(CC)c1NC(=O)N1Cc2n[nH]c(NC(=O)c3ccc(C(C)(C)C)cc3)c2C1 . Could you help? 7.00

* * *

# SYSTEM TESTED: Aurora kinase B (Homo sapiens)
# Sequence (Q96GD4 whole entry): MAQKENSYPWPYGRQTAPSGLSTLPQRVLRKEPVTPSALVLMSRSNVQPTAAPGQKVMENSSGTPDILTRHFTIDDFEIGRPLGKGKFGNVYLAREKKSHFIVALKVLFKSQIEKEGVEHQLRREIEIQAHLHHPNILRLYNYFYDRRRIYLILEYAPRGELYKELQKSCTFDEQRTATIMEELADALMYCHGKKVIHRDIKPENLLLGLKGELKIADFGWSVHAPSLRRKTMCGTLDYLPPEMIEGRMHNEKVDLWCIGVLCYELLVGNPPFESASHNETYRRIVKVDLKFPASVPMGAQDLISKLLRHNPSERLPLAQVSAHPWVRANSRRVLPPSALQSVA
# ASSAY METHOD TEXT: Inhibition of Aurora kinase B
QUANTITY KIND: pIC50
Quick note: pIC50 values are minus log10 of concentrations in mol/L.

Name the reported pIC50 value associated with the compound CCc1cccc(CC)c1NC(=O)N1Cc2n[nH]c(NC(=O)c3ccc(N4CCN(C)CC4)cc3)c2C1 [PHA-680632] 6.87
